Experiment: Pharmacokinetics test in mouse
Format: in vivo, ICR mice
Settings: male, ICR, mouse, plasma, po, 10 mg/kg, mice, p.o. 10 mg/kg; read-out: Cmax
Rule for this label: Met means Cmax is less than 2000 ng/mL; Not met means Cmax is at least 2000 ng/mL.

The examples below pair each entry with its known result.
* CC(C)N(C(=O)c1cc(F)ccc1Oc1nncnc1N1CC2(CCN(CC3CCC4(CC3)COC(=O)N4)CC2)C1)C(C)C (centres unmarked) | Met
* CC(C)N(C(=O)c1cc(F)ccc1Oc1cncnc1N1CC2(CCN(C[C@H]3CC[C@@]4(CCC(=O)N4)CC3)CC2)C1)C(C)C | Not met
* CCN(C(=O)c1cc(F)ccc1Oc1cncnc1N1CC2(CCN(C[C@H]3CC[C@@]4(CCC(=O)N4)CC3)CC2)C1)C(C)C | Not met
* CC(C)N(C(=O)c1cc(F)ccc1Oc1nncnc1N1CC2(CCN(CC3CC4CCC3CC43CCC(=O)N3)CC2)C1)C(C)C (single isomer, unassigned) | Not met

Find out if reported Cmax for "COCC1(COC)C[C@]2(CC[C@@H](CN3CCC4(CC3)CN(c3ncnnc3Oc3ccc(F)cc3C(=O)N(C(C)C)C(C)C)C4)CC2)NC1=O" is less than 2000 ng/mL
Met
